# TESTED_TARGET: DNA polymerase lambda (Homo sapiens, UniProt Q9UGP5)
# Sequence (Q9UGP5 whole entry): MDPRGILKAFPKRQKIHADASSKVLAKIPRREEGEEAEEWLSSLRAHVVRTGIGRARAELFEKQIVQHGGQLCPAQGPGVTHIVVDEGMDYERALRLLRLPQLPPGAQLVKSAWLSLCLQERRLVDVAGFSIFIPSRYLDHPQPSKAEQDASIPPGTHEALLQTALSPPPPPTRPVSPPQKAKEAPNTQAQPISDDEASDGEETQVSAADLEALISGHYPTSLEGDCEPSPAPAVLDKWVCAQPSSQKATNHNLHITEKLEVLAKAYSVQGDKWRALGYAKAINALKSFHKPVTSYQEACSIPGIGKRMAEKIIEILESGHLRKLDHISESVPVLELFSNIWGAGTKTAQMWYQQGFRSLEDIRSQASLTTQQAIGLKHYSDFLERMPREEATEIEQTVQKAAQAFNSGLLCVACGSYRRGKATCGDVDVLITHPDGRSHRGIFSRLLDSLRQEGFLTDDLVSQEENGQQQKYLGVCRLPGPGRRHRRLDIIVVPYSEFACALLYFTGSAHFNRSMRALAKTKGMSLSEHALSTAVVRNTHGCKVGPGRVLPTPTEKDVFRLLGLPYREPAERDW
# PROTOCOL_SUMMARY: Inhibition of recombinant human His-tagged DNA polymerase lambda assessed as reduction in [3H]dTTP incorporation using poly(dA)/oligo(dT)18 as template/primer preincubated for 10 mins followed by template/primer addition measured after 60 mins
pIC50: −log10 of the molar value.
MEASUREMENT_LABEL: pIC50

COMPOUND: CC(C)=CCC[C@@]1(C)[C@H](CC=C(C)C)C[C@]2(CC=C(C)C)C(=O)[C@@]1(CC=C(C)C)C(=O)C(C(=O)c1ccc(O)c(O)c1)=C2O
MEASUREMENT_LABEL: pIC50
RESULT_NUMBER: 5.27
//
COMPOUND: CC(C)=CC[C@@H]1C[C@]2(CC=C(C)C)C(=O)[C@@]3(CC=C(C)C)C(O[C@@H](C(C)(C)O)CC[C@@]13C)C(C(=O)c1ccc(O)c(O)c1)=C2O (stereo partly specified)
MEASUREMENT_LABEL: pIC50
RESULT_NUMBER: 5.13
//
COMPOUND: CC(C)=CCC[C@@]1(C)[C@H](C/C=C(\C)C/C=C/C(C)(C)O)C[C@]2(CC=C(C)C)C(=O)[C@@]1(CC=C(C)C)C(=O)C(C(=O)c1ccc(O)c(O)c1)=C2O
MEASUREMENT_LABEL: pIC50
RESULT_NUMBER: 5.25
//
COMPOUND: Cc1cn([C@H]2CC[C@@H](COP(=O)(O)OP(=O)(O)OP(=O)(O)O)O2)c(=O)[nH]c1=O
MEASUREMENT_LABEL: pIC50
RESULT_NUMBER: 4.54
//
COMPOUND: C=C(C)[C@H](O)CC/C(C)=C/C[C@@H]1C[C@]2(CC=C(C)C)C(=O)[C@@](CC=C(C)C)(C(=O)C(C(=O)c3ccc(O)c(O)c3)=C2O)[C@@]1(C)CCC=C(C)C
MEASUREMENT_LABEL: pIC50
RESULT_NUMBER: 5.30
//
COMPOUND: CC(C)=CCC[C@@]1(C)[C@H](CC=C(C)C)C[C@]2(CC=C(C)C)C(=O)[C@@]1(CC=C(C)C)C(=O)C(C(=O)c1cccc(O)c1)=C2O
MEASUREMENT_LABEL: pIC50
RESULT_NUMBER: 5.24
